The reported numbers originate from ChEMBL document CHEMBL1201862.

# Tested on: CCRF-CEM
# Assay Comment: NCI tumour cell line growth inhibition, 48 h
Active and inactive are the calls of the source. Cut-off read from the data, not from the text of the source: active = GI50 up to about 1.1 µM and inactive = higher.
Could you please report measured GI50 for the items listed next?

Look over these answered cases.
[[record]]
compound = "COc1cc(C=C(c2ccc(N(C)C)cc2)c2ccc(N(C)C)cc2)c2ccccc2c1OC"
test_result = "18.6 µM (inactive)"

[[record]]
compound = "C=CCCCCCCCCCCCC1CCC(CC)N1 (centres undefined)"
test_result = "8.3 µM (inactive)"

[[record]]
compound = "CC(C)N(/C(F)=N\\C(=O)Nc1ccccc1C(F)(F)F)C(C)C"
test_result = "37.9 µM (inactive)"

[[record]]
compound = "CCOC(=O)c1c(N2CCOCC2)[nH]c(=O)c(C(c2ccco2)c2c(O)c(C(=O)OCC)c(N3CCOCC3)[nH]c2=O)c1O"
test_result = "> 100 µM (inactive)"

[[record]]
compound = "CC[C@@H]1CC[C@@H]2[C@H](CC[C@]3(C)[C@@H](O)CC[C@@H]23)[C@H]1C(=O)O"
test_result = "> 100 µM (inactive)"

[[record]]
compound = "CCOC(=O)c1c(C)n(CCN2CCN(C)CC2)c2ccc(OC)cc12"
test_result = "24 µM (inactive)"

[[record]]
compound = "O=C1CC(c2ccccc2)[S+]([O-])c2ccccc2N1 (centres undefined)"
test_result = "> 100 µM (inactive)"

[[record]]
compound = "CN(C)CCNC1=CC(=O)c2c(O)ccc(O)c2C1=O"
test_result = "3.94 µM (inactive)"

[[record]]
compound = "CCOc1ccc2c(c1)C(/C(C(Cl)=C(Cl)Cl)=[N+](/[O-])OC(=O)c1ccccc1)=N2"
test_result = "36.9 µM (inactive)"

[[record]]
compound = "Nc1cc2nc(O)c(O)nc2cc1N"
test_result = "> 100 µM (inactive)"


For every record below, what is its GI50?
1. COc1ccc(CCc2cc(OC)cc(OC)c2)cc1
2. CN(C)CC1CCC/C(=C\c2ccc(OC(=O)/C=C/c3ccccc3)cc2)C1=O (centres undefined)
3. Cc1ccc(-c2nnc(CCCCCCCCc3nnc(-c4ccc(C)cc4O)n3N)n2N)c(O)c1
4. CO/C=C/C=C(\C#N)C(=O)OC
5. CCCCCCCCCCCCCCCC(=O)OCC(COP(=O)(O)OCCNC(=O)CCSSc1ccccn1)OC(=O)CCCCCCCCCCCCCCC (centres undefined)
6. CC1(C)C2CCC3(OCCO3)C1C(O)C2 (centres undefined)
7. CSC(=S)NN=C1CCCCC1

Result:
1: 15.6 µM (inactive); 2: 0.265 µM (active); 3: > 10 µM (inactive); 4: 26.3 µM (inactive); 5: > 100 µM (inactive); 6: > 100 µM (inactive); 7: 26.1 µM (inactive)

Quick request: GI50 for each listed item, please.
1. N#Cc1c(N)nc2[nH]nc(N)c2c1-c1ccccc1
2. COC(=O)[C@]1(C)CCC[C@]2(C)[C@H]3CC[C@]4(C(C)C)OO[C@@H](O4)[C@]34O[C@@H]4C[C@H]21

Result:
["16.4 µM (inactive)", "0.5 µM (active)"]

---

# Tested on: K562
# Assay Comment: NCI tumour cell line growth inhibition, 48 h
Calls of active or inactive are those of the source. No stated cut-off is given here; in the data, active = GI50 up to about 1.1 µM and inactive = higher.
Give one outcome, nothing more. List: active, inactive

[[record]]
compound = "CCOC(=O)C1(C(=O)OCC)CN(CC)CN(c2ccccc2)C1"
cat = "inactive"

[[record]]
compound = "CCOC(=O)c1csc(NC(=O)CCCC#N)n1"
cat = "inactive"

[[record]]
compound = "CCN(CC)CCN(C(=O)C(C)(C)C)c1ccccc1N"
cat = "inactive"

[[record]]
compound = "CC(=O)n1cc(OP(=O)(Oc2ccccc2)Oc2ccccc2)c2ccccc21"
cat = "inactive"

[[record]]
compound = "O=C1CC2CCCC23CC2(CCN13)OCCO2 (configuration not stated)"
cat = "inactive"


Request: Record request — test call for CC(=O)OCC1OC(n2cc(I)c(=O)[nH]c2=O)C(OC(C)=O)C(OC(C)=O)C1OC(C)=O (configuration not stated)
Result: inactive

Request: For this compound, state the assay outcome: Cc1c(/N=C\c2ccc(N(CCC#N)CCC#N)cc2)c(=O)n(-c2ccccc2)n1C
Result: inactive

---

# System: SK-MEL-5
# Assay Comment: NCI tumour cell line growth inhibition, 48 h
The source made the active and inactive calls. Rule as the data show it: active = GI50 up to about 1.1 µM and inactive = higher.
Response enum: T (active), F (inactive)

Past entries and their recorded results:
[[record]]
compound = "N#CC(=N)c1ncn(-c2ccc(N)cc2)c1N"
cat = "F"

[[record]]
compound = "O=C(Nc1ccc(Br)c2ccccc12)c1ccc2ccccc2c1O"
cat = "F"

[[record]]
compound = "O=C1OCCC[C@H]2O[C@@H](COCc3ccccc3)C[C@@H]12"
cat = "F"

[[record]]
compound = "O=[As]O"
cat = "F"

[[record]]
compound = "COC1OC(C)C(OCc2ccccc2)C(OS(=O)(=O)c2ccc(C)cc2)C1OS(=O)(=O)c1ccc(C)cc1 (stereo not drawn)"
cat = "F"


Request: Hi, do you know how c1ccc(COc2cccc3cccnc23)cc1 came out in this test?
Result: F

Request: Which outcome was entered for the compound COc1nc(N)nc2nc[nH]c12 in this test?
Result: F

Request: Hi, do you know how CC[S+]([O-])c1c2cc(OC)ccc2nc2ccc(OC)cc12 (stereo not drawn) came out in this test?
Result: F

Request: Hey, what did the test say about C/C(=N\O)C(CN1CCCCC1)C(c1ccccc1)c1c(O)c2ccccc2oc1=O (stereo not drawn) ?
Result: F

Request: Just curious, what result did COc1ccc(OC)c(CC(=O)c2ccc(O)c(C(=O)NCCc3ccc(F)cc3)c2)c1 get here?
Result: F

---

# Tested on: NCI-H460
# Assay Comment: NCI tumour cell line growth inhibition, 48 h
Calls of active or inactive are those of the source. Cut-off read from the data, not from the text of the source: active = GI50 up to about 1.1 µM and inactive = higher.
Answer with one of the outcomes active, inactive

Below, 3 compounds whose answers are already recorded.
[[record]]
compound = "CCCCOC(=O)N[C@H]1CCc2cc(OC)c(OC)c(OC)c2-c2ccc(SC)c(=O)cc21"
cat = "active"

[[record]]
compound = "C1COCCSC2=C(SCCO1)SC(=C1SC3=C(SCCOCCOCCS3)S1)S2"
cat = "inactive"

[[record]]
compound = "O=c1[nH]c2c(c(=O)[nH]1)SSC2"
cat = "inactive"


# ---- query compound ----
Request: Please share the test call associated with CCOc1ccc2c(c1)NC(=O)C(C1OC(c3ccccc3)=CC1=O)S2 (centres undefined) .
Result: inactive

---

# Tested on: NCI-H522
# Assay Comment: NCI tumour cell line growth inhibition, 48 h
Activity calls are given as the source filed them. No stated cut-off is given here; in the data, active = GI50 up to about 1.1 µM and inactive = higher.
API: response.call in active, inactive

Past entries and their recorded results:
[[record]]
compound = "Cc1cc(C)c(C(=O)/C(=C/c2ccccc2)c2ccccc2)c(C)c1"
cat = "inactive"

[[record]]
compound = "c1cncc(CNCc2cccnc2)c1"
cat = "inactive"

[[record]]
compound = "O=C(/C=C/c1ccccc1Cl)c1cccc2ccccc12"
cat = "inactive"

[[record]]
compound = "Cc1cccc2c(N)c3cccc(C(=O)NCCNCCN)c3nc12"
cat = "active"

[[record]]
compound = "C=C(C)[C@H]1Cc2c(ccc3c2O[C@@H]2COc4cc(OC)c(OC)cc4[C@@H]2C3=O)O1"
cat = "active"

[[record]]
compound = "Oc1ccccc1-c1cnnc(-c2ccccc2O)c1"
cat = "inactive"


Request: Returns: the outcome recorded for C=CCN1C(=O)/C(=C/c2ccccc2)N=C1SC/C=C/C in this assay.
Result: inactive

Request: Returns: the outcome recorded for CCCCCCCCCCCCCCCC(=O)OCC(COP(=O)(O)OCCNC(=O)CCSSc1ccccn1)OC(=O)CCCCCCCCCCCCCCC (centres undefined) in this assay.
Result: inactive

Request: Outcome logged for CCOC(=O)C(=Cc1ccccc1Cl)C(=O)OCC in this assay:
Result: inactive

Request: # outcome recorded in this test, key = CCCC/C=C1\CCC(C)(CN(C)C)C1=O (centres undefined)
Result: inactive

---

# Tested on: U-251
# Assay Comment: NCI tumour cell line growth inhibition, 48 h
Calls of active or inactive are those of the source. Rule as the data show it: active = GI50 up to about 1.1 µM and inactive = higher.
Readout Name: GI50

Please review the following examples before continuing.
[[record]]
compound = "C#CCOCn1cnc2c(S)ncnc21"
test_result = "> 100 µM (inactive)"

[[record]]
compound = "S=C1NC2=C(COC/C2=C\\c2ccccc2Cl)C(c2ccccc2Cl)N1 (stereo not drawn)"
test_result = "25.1 µM (inactive)"


Would you kindly look at the next entry?
Request: State its GI50: COC(=O)C12C34C=CC5(CCC6(C=CC1(CC3)O6)C52C(=O)OC)O4 (stereo not drawn)
Result: > 100 µM (inactive)

---

# System: M19-MEL
# Assay Comment: NCI tumour cell line growth inhibition, 48 h
Activity calls are given as the source filed them. Rule as the data show it: active = GI50 up to about 1.1 µM and inactive = higher.
Readout Name: GI50

[[record]]
compound = "CC1(C)C2CCC3(OCCO3)C1C(O)C2 (centres undefined)"
test_result = "> 100 µM (inactive)"

[[record]]
compound = "Oc1ccccc1-c1cnnc(-c2ccccc2O)c1"
test_result = "27.4 µM (inactive)"

[[record]]
compound = "O=C(/C=C/c1ccccc1O)c1ccccc1O"
test_result = "> 100 µM (inactive)"

[[record]]
compound = "CC(=O)O[C@H]1C(=O)[C@@]2(C)C(C(OC(=O)c3ccccc3)C3[C@@H](O)C(OC(=O)[C@@H](O)[C@H](NC(=O)c4ccccc4)c4ccc(C(F)(F)F)cc4)C(C)=C1C3(C)C)[C@]1(OC(C)=O)CO[C@@H]1C[C@@H]2O (some centres undefined)"
test_result = "> 25 µM (inactive)"


Field: GI50. Fill in for each record below.
1. COc1ccc2c(c1)CC[C@@H]1C2CC[C@]2(C)C(=O)NC(=O)CC12 (some centres undefined)
2. CC1=C(C(=O)Nc2ccc(Cl)c(Cl)c2)C(c2ccco2)C(C(=O)Nc2ccc(Cl)c(Cl)c2)=C(C)N1
3. CCOC(=O)NC(=O)c1cn(CCSCCOC(=O)NCCCCCCNC(=O)OCCSCCn2cc(C(=O)NC(=O)OCC)c(=O)[nH]c2=O)c(=O)[nH]c1=O
4. COC1OC(C)C(OCc2ccccc2)C(OS(=O)(=O)c2ccc(C)cc2)C1OS(=O)(=O)c1ccc(C)cc1 (centres undefined)
5. COc1ccc(C(=O)C2=NON3OC23C(=O)c2ccc(OC)cc2)cc1 (centres undefined)

Result:
["> 100 µM (inactive)", "11.8 µM (inactive)", "> 100 µM (inactive)", "> 100 µM (inactive)", "16.5 µM (inactive)"]

Below are some compounds; for each one, tell me its GI50.
1. CCCCOC(=O)NC(=O)c1cn(CCCOC(=O)NCCCCCCNC(=O)OCCCn2cc(C(=O)NC(=O)OCCCC)c(=O)[nH]c2=O)c(=O)[nH]c1=O
2. N#Cc1sc2nc3c(c(-c4ccccc4)c2c1N)CCCC3

Result:
["> 100 µM (inactive)", "> 100 µM (inactive)"]

Please give GI50 for each item listed below.
1. CC(=O)OCC1OC(n2cc(I)c(=O)[nH]c2=O)C(OC(C)=O)C(OC(C)=O)C1OC(C)=O (centres undefined)
2. S=c1sc2c(S)nc(S)nc2n1-c1ccccc1
3. Cc1cc(C)c(C(=O)/C(=C/c2ccccc2)c2ccccc2)c(C)c1

Result:
1: > 100 µM (inactive); 2: > 100 µM (inactive); 3: 39.9 µM (inactive)
